Data origin: PubChem BioAssay (Tox21)

Test: A CellTox Green Cytotoxicity Assay to monitor cytotoxicity in HepG2 cells - 32 hour (AID 1224883); further: nearly all actives have a fitted effect of over 50% in size; further: potency means the concentration at half of the fitted maximal effect
Settings: CellTox Green fluorescence; series mostly up to 76.8 µM
Records with an inconclusive call do not appear. Active and inactive are the calls of the source. The call rests on the fitted dose curve; in most records, active means well fitted activation curve with a large enough effect in the repeat runs; inconclusive means weak or mixed curves; inactive means flat fitted curve, though single readings scatter.
Quantity: Potency

Look over these answered cases.
>  <Compound>
CC1CCCC1

>  <Potency>
inactive

$$$$
>  <Compound>
COc1ccc2c3c1O[C@H]1[C@H](O)CC[C@H]4[C@@H](C2)N(C)CC[C@@]341

>  <Potency>
inactive

$$$$
>  <Compound>
COP(=S)(OC)Oc1ccc([N+](=O)[O-])c(C)c1

>  <Potency>
inactive

$$$$
>  <Compound>
O=S(=O)(O)F

>  <Potency>
inactive

$$$$
>  <Compound>
ClC1=C(Cl)[C@]2(Cl)[C@H]3[C@H]([C@@H]4C=C[C@H]3C4)[C@@]1(Cl)C2(Cl)Cl

>  <Potency>
54.9 µM (active)

$$$$
>  <Compound>
O=C(NC(=O)c1ccccc1Cl)Nc1ccc(OC(F)(F)F)cc1

>  <Potency>
inactive

$$$$
>  <Compound>
[C-]1=CC=CC1.[Cl][Zr+2][Cl].c1cc[cH-]c1

>  <Potency>
inactive

$$$$
>  <Compound>
CCC(C)c1cccc(C(C)CC)c1O (configuration not stated)

>  <Potency>
19.5 µM (active)

$$$$
>  <Compound>
Nc1nc(N)c(N)c(N)n1

>  <Potency>
55.2 µM (active)

$$$$
>  <Compound>
CNC(=O)CSP(=O)(OC)OC

>  <Potency>
inactive

$$$$

Challenge: Fill blank: measured Potency of the compound O=C(Nc1ccc(F)cc1F)c1cccnc1Oc1cccc(C(F)(F)F)c1 is ____.
Response given: inactive

Challenge: Another compound to check: CN(C)CCc1c[nH]c2ccccc12
Response given: inactive

---

Target: Acetylcholinesterase (Homo sapiens) (UniProt P22303)
Sequence (P22303 whole entry, looked up): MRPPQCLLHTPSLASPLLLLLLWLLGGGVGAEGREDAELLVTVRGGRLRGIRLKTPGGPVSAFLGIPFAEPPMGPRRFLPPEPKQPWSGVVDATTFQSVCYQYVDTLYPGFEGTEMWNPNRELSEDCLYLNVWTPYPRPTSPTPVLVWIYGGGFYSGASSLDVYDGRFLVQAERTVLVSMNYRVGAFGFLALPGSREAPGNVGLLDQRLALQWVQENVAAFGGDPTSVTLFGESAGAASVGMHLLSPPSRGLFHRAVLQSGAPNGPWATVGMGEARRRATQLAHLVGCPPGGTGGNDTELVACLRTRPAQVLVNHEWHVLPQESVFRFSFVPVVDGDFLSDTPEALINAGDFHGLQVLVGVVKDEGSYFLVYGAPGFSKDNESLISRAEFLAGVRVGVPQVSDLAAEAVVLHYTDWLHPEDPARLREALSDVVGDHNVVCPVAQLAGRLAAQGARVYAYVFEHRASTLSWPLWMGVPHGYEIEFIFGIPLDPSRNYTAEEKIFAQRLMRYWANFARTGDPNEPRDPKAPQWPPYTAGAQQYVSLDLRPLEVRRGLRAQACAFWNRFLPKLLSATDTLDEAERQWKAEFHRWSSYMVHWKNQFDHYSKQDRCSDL
Assay: Acetylcholinesterase (AChE) small molecule antagonists: fluorescence cell-based qHTS assay (AID 1347398); further: on the % scale 0 is the no-effect control and ±100 the full control effect; nearly all actives have a fitted effect of over 50% in size
Details: SH-SY5Y cells; AChE activity; series mostly up to 115 µM
Records with an inconclusive call do not appear. Activity calls are given as the source filed them. The call rests on the fitted dose curve.
Quantity: Potency

>  <Molecule>
CCOP(=S)(NC(C)C)Oc1ccccc1C(=O)OC(C)C (stereo not given)

>  <Quantity>
Potency

>  <Recorded Value>
inactive

$$$$
>  <Molecule>
Brc1cccc(-c2ccccc2)c1

>  <Quantity>
Potency

>  <Recorded Value>
inactive

$$$$
>  <Molecule>
CC(=O)C(Cl)C(=O)N(C)C (stereo not given)

>  <Quantity>
Potency

>  <Recorded Value>
inactive

$$$$
>  <Molecule>
O=C1C2(Cl)C3(Cl)C4(Cl)C(Cl)(Cl)C5(Cl)C3(Cl)C1(Cl)C5(Cl)C24Cl (stereo not given)

>  <Quantity>
Potency

>  <Recorded Value>
inactive

$$$$
>  <Molecule>
O=S1OCC2C(CO1)C1(Cl)C(Cl)=C(Cl)C2(Cl)C1(Cl)Cl (stereo not given)

>  <Quantity>
Potency

>  <Recorded Value>
inactive

$$$$

Challenge: Short answer please: Potency, Acetylcholinesterase (Homo sapiens) (UniProt P22303), entry CCO/N=C(\CC)C1=C(O)CC(c2c(C)cc(C)cc2C)CC1=O (stereo not given)
Response given: inactive

Challenge: Same lookup for CC(=O)[O][Sn]([c]1ccccc1)([c]1ccccc1)[c]1ccccc1 , please.
Response given: inactive

Challenge: Now consider COC(=O)N(OC)c1ccccc1COc1ccn(-c2ccc(Cl)cc2)n1 and answer again.
Response given: inactive

Challenge: How about this molecule: CCOC(=O)Cc1ccccc1
Response given: inactive

Challenge: Cool, now O=S1(=O)OCC2C(CO1)C1(Cl)C(Cl)=C(Cl)C2(Cl)C1(Cl)Cl (stereo not given)
Response given: inactive

---

Assay: qHTS assay to test for compound auto fluorescence at 535 nm (green) in HEK293 cells (AID 720680); further: on the % scale 0 is the no-effect control and ±100 the full control effect
Conditions: green autofluorescence 485/535 nm; series mostly up to 91.3 µM
Active and inactive are the calls of the source. Calls follow the shape of the dose curve; as a rule, active = well fitted curve in the direction sought with a large enough effect in the repeat runs; inconclusive = weak or mixed curves; inactive = flat fitted curve, though single readings scatter.
Quantity: fluorescence, % of fluorescein

>  <Molecule>
CC[C@]1(O)CC[C@H]2[C@@H]3CCC4=CCCC[C@@H]4[C@H]3CC[C@@]21C

>  <fluorescence, % of fluorescein>
inactive

$$$$
>  <Molecule>
ClC1=C(Cl)[C@]2(Cl)[C@H]3[C@H]([C@@H]4C=C[C@H]3C4)[C@@]1(Cl)C2(Cl)Cl

>  <fluorescence, % of fluorescein>
inactive

$$$$
>  <Molecule>
S=C=NCCc1ccccc1

>  <fluorescence, % of fluorescein>
inactive

$$$$
>  <Molecule>
C[N+]1(C)[C@@H]2CC[C@H]1CC(OC(=O)C(CO)c1ccccc1)C2 (stereo partly drawn)

>  <fluorescence, % of fluorescein>
inactive

$$$$
>  <Molecule>
CCOC(=O)Cc1ccccc1

>  <fluorescence, % of fluorescein>
inactive

$$$$
>  <Molecule>
CC(C)N(C(=O)CCl)c1ccccc1

>  <fluorescence, % of fluorescein>
inactive

$$$$
>  <Molecule>
Nc1cc(Cl)ccc1Cl

>  <fluorescence, % of fluorescein>
inactive

$$$$
>  <Molecule>
CN/C(=N\[N+](=O)[O-])NCc1cnc(Cl)s1

>  <fluorescence, % of fluorescein>
inactive

$$$$
>  <Molecule>
Cc1ccccc1OP(=O)(Oc1ccccc1C)Oc1ccccc1C

>  <fluorescence, % of fluorescein>
inactive

$$$$
>  <Molecule>
CN

>  <fluorescence, % of fluorescein>
inactive

$$$$

Challenge: Record request: fluorescence, % of fluorescein value, item O=P(Cl)(Cl)Cl
Response given: inactive

Challenge: // same read-out, input: Oc1ccc2[nH]cc(CCCCN3CC=C(c4ccccc4)CC3)c2c1
Response given: inactive

Challenge: // repeat for CC(C)(C)c1ccc(OP(=O)(Oc2ccccc2)Oc2ccccc2)cc1 and report
Response given: inactive

Challenge: Can you handle CSC(C)(C)/C=N/O next?
Response given: inactive

Challenge: Entry to check: CCC[CH2][Sn]([CH2]CCC)([CH2]CCC)[O][Sn]([CH2]CCC)([CH2]CCC)[CH2]CCC
Response given: 0.0128% [at 3.72 µM] (inactive)

Challenge: Let us now turn to CN1CCc2cc(Cl)c(O)cc2[C@H]2c3ccccc3CC[C@@H]21
Response given: inactive

Challenge: And Cc1c([N+](=O)[O-])cc2c(c1[N+](=O)[O-])C(C)(C)CC2(C)C ?
Response given: inactive

Challenge: // repeat for CCCN and report
Response given: inactive

Challenge: And then CO/N=C(\C(=O)OC)c1ccccc1CO/N=C(\C)c1cccc(C(F)(F)F)c1 , what is it?
Response given: inactive

Challenge: What do you have for O=[N+]([O-])c1cc(C(F)(F)F)c(Cl)c([N+](=O)[O-])c1Nc1ncc(C(F)(F)F)cc1Cl ?
Response given: inactive

Challenge: // query: COP(=O)(OC)O/C(=C\Cl)c1cc(Cl)c(Cl)cc1Cl
Response given: inactive

Challenge: Another molecule to check: C=Cc1cccc(CCl)c1
Response given: inactive

Challenge: Another molecule to look at: CCC(C)c1cccc(C(C)CC)c1O (stereo not drawn)
Response given: inactive

Challenge: Moving on to the next molecule: CC(C)C(Br)C(=O)NC(N)=O (stereo not drawn)
Response given: inactive

Challenge: And the next one, N#Cc1sc2c(=O)c3ccccc3c(=O)c=2sc1C#N ?
Response given: inactive

Challenge: Lookup CCCCn1cc[n+](C)c1 (tested in a mixture with another compound)
Response given: inactive

Challenge: Entry CNC(C)(C)Cc1ccccc1 please
Response given: 0.0122% [at 18.6 µM] (inactive)

---

Target: Vitamin D3 receptor (Homo sapiens)
Assay: qHTS assay to identify small molecule antagonists of the vitamin D receptor (VDR) signaling pathway (AID 743223)
Conditions: VDR-UAS-bla HEK293T, beta-lactamase FRET ratio, 16 h; series mostly up to 61 µM
Results filed as inconclusive are left out. Activity calls are given as the source filed them. Calls follow the shape of the dose curve; as a rule, active = well fitted inhibition curve with a large enough effect in the signal ratio in the repeat runs (not every such curve was filed as active); inconclusive = weak or mixed curves, or effect the other way; inactive = no such curve, though single readings can be large or run the other way; the % refers to the signal ratio.
Your answer must be one of the following: yes = active, no = inactive

Challenge: Look up the recorded call for BrCCCBr in this test.
Response given: no

Challenge: # iterate: O=Cc1ccccc1
Response given: no

Challenge: Let us now turn to CCC1COC(Cn2cncn2)(c2ccc(Cl)cc2Cl)O1 (stereo not given)
Response given: no

Challenge: Next molecule up: N#CSCc1ccccc1
Response given: no

Challenge: What do you get for Nc1nc(N)c(N)c(N)n1 ?
Response given: no

Challenge: Now consider O=c1c2ccccc2c(=O)c2c1cc(Cl)c1[nH]c3c([nH]c12)c(Cl)cc1c(=O)c2ccccc2c(=O)c13 and answer again.
Response given: no

Challenge: Then what about the molecule Cc1cccc(Cc2cnc[nH]2)c1C ?
Response given: no

Challenge: Check CC(C)=CCN1CC[C@@]2(C)c3cc(O)ccc3C[C@@H]1[C@@H]2C too.
Response given: no

Challenge: And what about the molecule Cc1ccc2cc3c(ccc4ccccc43)c3c2c1CC3 ?
Response given: no

Challenge: Note, next up: CNC(=O)O/N=C(\C)C(C)S(C)(=O)=O (stereo not given)
Response given: no

Challenge: And CN/C(=N\[N+](=O)[O-])NCc1cnc(Cl)s1 ?
Response given: no

Challenge: Now the same for N#Cc1ccc(N(CC(N)=O)CC(F)(F)F)cc1C(F)(F)F
Response given: no

Challenge: Note, next up: O=C1C2(Cl)C3(Cl)C4(Cl)C(Cl)(Cl)C5(Cl)C3(Cl)C1(Cl)C5(Cl)C24Cl (stereo not given)
Response given: yes

Challenge: Now consider CCC1(CC)C(=O)N=C(O)NC1=O .
Response given: no

Challenge: Would you mind doing CN as well?
Response given: no
